The reported numbers originate from patent US20260193268A1.

# System: HCC1954 cells (with PI3Kα H1047R mutation)
# Assay Notes: In vitro inhibition of HCC1954 cell proliferation (CellTiter-Lumi)
# Assay type: cell-based
# Experimental Setup: Homo sapiens, HCC1954, 144 h, HCC1954 cells, 144 h, CellTiter-Lumi; numeric values; read-out: Inhibitory activity against HCC1954 cells (IC50)
pIC50: −log10 of the molar value.
Assay Metric: pIC50

// below: answered molecules
Asked: Entry `C=CC(=O)Nc1ccc(N2CC(C3CCN(c4ccc5c(c4)-c4nc(N6C(=O)OC[C@H]6C(F)F)cn4CCO5)CC3)C2)cc1` has what pIC50?
Given back: 7.15

Asked: Requested field: pIC50. Item: `CC(C)C=C(C#N)C(=O)Nc1ccc(N2CC(N3CCN(c4ccc5c(c4)-c4nc(N6C(=O)OC[C@H]6C(F)F)cn4CCO5)CC3)C2)cc1`
Given back: 7.26

Asked: Given `CC#CC(=O)Nc1ccc(N2CC(N3CCN(c4ccc5c(c4)-c4nc(N6C(=O)OC[C@H]6C(F)F)cn4CCO5)CC3)C2)c(F)c1` , state its recorded pIC50.
Given back: 6.94

Asked: Look at this molecule and give its reported pIC50. `C=CC(=O)N1CC(N2CCC(CN3CC=C(c4ccc5c(c4)-c4nc(N6C(=O)OC[C@H]6C(F)F)cn4CCO5)CC3)CC2)C1`
Given back: 6.67

Asked: Form field: reported pIC50 of `C=CC(=O)Nc1ccc(CN2CC(N3CCN(c4ccc5c(c4)-c4nc(N6C(=O)OC[C@H]6C(F)F)cn4CCO5)CC3)C2)cc1`
Given back: 7.17

Asked: Look up pIC50: `C=CC(=O)Nc1ccc(CN2CC3(C2)CN(c2ccc4c(c2)-c2nc(N5C(=O)OC[C@H]5C(F)F)cn2CCO4)C3)cc1`
Given back: 6.79

[I] C=CC(=O)Nc1cc(N2CC(N3CCN(c4ccc5c(c4)-c4nc(N6C(=O)OC[C@H]6C(F)F)cn4CCO5)CC3)C2)n(C)n1
[II] C=CC(=O)Nc1ccc(CCN2CCN(c3ccc4c(c3)-c3nc(N5C(=O)OC[C@H]5C(F)F)cn3CCO4)CC2)cc1
[III] C=CC(=O)Nc1ccc(N2CC3(CCN(c4ccc5c(c4)-c4nc(N6C(=O)OC[C@H]6C(F)F)cn4CCO5)C3)C2)cc1
Asked: Sort the 3 molecules by pIC50; largest first, smallest last. Please respond with the labels ordered as the question requires.
Given back: I, II, III
